From: ChEMBL document CHEMBL1201861

# Tested on: NB5;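 further: growth inhibition of NB5 cells, read out as cell viability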
# assay remarks: cells
# Assay type: functional, cell-based, Homo sapiens
# condition context: Homo sapiens, NB5
# Description: SANGER: Inhibition of human NB5 cell growth in a cell viability assay.
pIC50: −log10 of the molar value.
measured quantity: pIC50

Past entries and their recorded results:
molecule | endpoint value
CC(=O)O[C@@H]1[C@@H](OC(C)=O)[C@@H](O)[C@H](Oc2c(-c3ccc(O)cc3)oc3cc(O)cc(O)c3c2=O)O[C@H]1C | < 5.00
C=C1C(=O)O[C@@H]2C3O[C@]3(C)CC/C=C(\C)CC[C@@H]12 (stereo partly drawn) | < 5.30

As a next step, examine the molecule that follows.
# get_value(readout='pIC50', item= CC(=O)O[C@@]12CO[C@@H]1C[C@H](O)[C@@]1(C)C(=O)[C@H](O)C3=C(C)[C@@H](OC(=O)[C@H](O)[C@@H](NC(=O)OC(C)(C)C)c4ccccc4)C[C@@](O)([C@@H](OC(=O)c4ccccc4)[C@H]21)C3(C)C )
< 8.00

====

# Tested on: CAKI-1;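 further: growth inhibition of CAKI-1 cells, measured by a cell viability assay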
# assay remarks: cells
# Type: functional, cell-based, Homo sapiens
# condition context: Homo sapiens, CAKI-1
# Description: SANGER: Inhibition of human CAKI-1 cell growth in a cell viability assay.
pIC50: −log10 of the molar value.
measured quantity: pIC50

compound | pIC50
C=CCc1cccc(/C=N/NC(=O)CN2CCN(Cc3ccccc3)CC2)c1O | < 5.59
CN(C)C/C=C/C(=O)Nc1cc2c(Nc3ccc(F)c(Cl)c3)ncnc2cc1O[C@H]1CCOC1 | < 6.30

# get_value(readout='pIC50', item= Cc1ccc(Nc2nccc(N(C)c3ccc4c(C)n(C)nc4c3)n2)cc1S(N)(=O)=O )
< 5.10

Same for CN(Cc1cnc2nc(N)nc(N)c2n1)c1ccc(C(=O)N[C@@H](CCC(=O)O)C(=O)O)cc1 [METHOTREXATE]
< 6.70

Same for C[C@]1(O)C[C@@H](c2nc(-c3ccc4ccc(-c5ccccc5)nc4c3)c3c(N)nccn32)C1
< 5.59

====

# Test system: HCC1395;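 further: growth inhibition of HCC1395 cells, read out by a cell viability assay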
# assay remarks: cells
# Format: functional, cell-based, Homo sapiens
# condition context: Homo sapiens, HCC1395
# Description: SANGER: Inhibition of human HCC1395 cell growth in a cell viability assay.
measured quantity: IC50

Past entries and their recorded results:
compound | endpoint value
Cc1ccc(Nc2nccc(N(C)c3ccc4c(C)n(C)nc4c3)n2)cc1S(N)(=O)=O | 2.58 µM
O=C1N=C(NCc2cccs2)S/C1=C\c1ccc2ncccc2c1 | > 5 µM
Nc1ccn([C@@H]2O[C@H](CO)[C@@H](O)[C@@H]2O)c(=O)n1 | > 2 µM

# get_value(readout='IC50', item= Cn1cncc1[C@@](N)(c1ccc(Cl)cc1)c1ccc2c(c1)c(-c1cccc(Cl)c1)cc(=O)n2C )
14.9 µM

Same for Cc1cc([C@@H](C)Nc2ccccc2C(=O)O)c2nc(N3CCOCC3)cc(=O)n2c1
> 5.12 µM

Same for CN(C)C/C=C/C(=O)Nc1cc2c(Nc3ccc(F)c(Cl)c3)ncnc2cc1O[C@H]1CCOC1
> 0.5 µM

Same for O=C(NOCC1CC1)c1ccc(F)c(F)c1Nc1ccc(I)cc1Cl
> 10 µM

Same for CC(=O)O[C@@H]1[C@@H](OC(C)=O)[C@@H](O)[C@H](Oc2c(-c3ccc(O)cc3)oc3cc(O)cc(O)c3c2=O)O[C@H]1C
> 10 µM

Same for COc1cc(F)c(F)c(Nc2ccc(I)cc2F)c1NS(=O)(=O)C1(CC(O)CO)CC1 (centres undefined)
> 5 µM
